- System: MCF7
- protocol summary: Antiproliferative activity against human MCF7 cells incubated for 72 hrs by MTT assay
- Assay type: functional, cell-based
The source made the active and inactive calls. No cut-off for these calls is given here.
quantity measured: Activity

C[C@@H]1OC(=O)/C=C/[C@@H](O)CC[C@H](C)OC(=O)[C@H](n2cnc3ncn4c5c(nc4c32)[C@H](C)OC(=O)/C=C/[C@@H](O)CC[C@H](C)OC(=O)C5)CC1=O ... inactive
C[C@@H]1OC(=O)/C=C/[C@@H](O)CC[C@H](C)OC(=O)[C@H](n2cnc3c2ncn2c4c(nc32)[C@H](C)OC(=O)/C=C/[C@@H](O)CC[C@H](C)OC(=O)C4)CC1=O ... inactive
CO[C@@H]1[C@H](O)[C@@H](CO)O[C@H]1n1cnc2c1ncn1c3c(nc21)[C@H](C)OC(=O)/C=C/[C@@H](O)CC[C@H](C)OC(=O)C3 ... inactive
C[C@@H]1OC(=O)/C=C/[C@@H](O)CC[C@H](C)OC(=O)Cc2c1nc1c3ncn([C@@H]4O[C@H](CO)[C@@H](O)[C@H]4O)c3ncn21 ... inactive

Origin of the recorded values: ChEMBL document CHEMBL5532715
